Please respond with reported Hepatic triglycerides ± SE for every item in the list.
test: hyperlipemia from diet (Table III); format: in vivo, Sprague-Dawley male rat; settings: hyperlipidic diet 4 weeks (diet alone 56.4+3.8); 200 mg/kg/day per os
Report only the number, with the unit mg/g fresh tissue understood.

Data request: In one line, give reported Hepatic triglycerides ± SE of the entry C/C(=C\c1ccccc1)CC(=O)O .
Data returned: 37.7

Data request: In one line, give reported Hepatic triglycerides ± SE of the entry CCN(CC)C(=O)C/C(C)=C/c1ccccc1 .
Data returned: 25.9

Data request: In one line, give reported Hepatic triglycerides ± SE of the entry C/C(=C\c1ccccc1)CC(=O)NC1CCCCC1 .
Data returned: 37.5

Data request: In one line, give reported Hepatic triglycerides ± SE of the entry CCOC(=O)C(C)(C)Oc1ccc(Cl)cc1 [chlofibrate, reference compound] .
Data returned: 30.3
